Reference for the values: paper PMC7457613

system: SARS-CoV-2 USA/NYU-VC-003/2020; assay: microbe, parasite or virus in culture; type: cell-based; details: Severe acute respiratory syndrome coronavirus 2, A549-ACE2
Measured Property: EC50

Q: Which EC50 is reported for this molecule? CCC(CC)COC(=O)[C@H](C)N[P@](=O)(OC[C@H]1O[C@@](C#N)(c2ccc3c(N)ncnn23)[C@H](O)[C@@H]1O)Oc1ccccc1
Result: 283 nM

----------
assay: in vitro; settings: human
Measured Property: CC50

Q: I have this molecule here, CCC(CC)COC(=O)[C@H](C)N[P@](=O)(OC[C@H]1O[C@@](C#N)(c2ccc3c(N)ncnn23)[C@H](O)[C@@H]1O)Oc1ccccc1 , and I need its recorded CC50.
Result: > 10 µM
